Recorded values, source paper PMC9421654.

solubility kinetic at 24 h for assorted molecules
Assay: Kinetic solubility measurement
Type: physicochemical
Details: 10 mM DMSO stock solutions
Description: Kinetic Solubility Measurement: The standard kinetic solubility assay runs on […] concentration range using 10 mM DMSO stock solutions for plating. Single point calibration assay runs in duplicates. Concentration of standards: […] DMSO solutions prepared by diluting 10 mM stock, solution with DMSO. Concentration of samples: 200 µM, 4 µl 10 mM DMSO stock solution diluted with the appropriate buffer to […]. DMSO content: 2%. […]
OBSERVED_PROPERTY: solubility kinetic at 24 h

- Cc1nccnc1Nc1nc(-c2ccc(OC(C)C)cn2)ns1: 24.5 µM
- Cc1cccnc1Nc1nc(-c2ccc(C(=O)N(C)C)cn2)ns1: 73.2 µM
- Cc1cccnc1N(C)c1nc(-c2ccc(OC(C)C)cn2)ns1: 33.5 µM
- CC(C)c1ccnc(-c2nsc(Nc3ncccc3C(F)(F)F)n2)c1: 1.6 µM
- Cc1ccnc(-c2nsc(Nc3ncccc3C(F)(F)F)n2)c1: 0.9 µM
- CC(=O)N(C)c1cccnc1Nc1nc(-c2ccc(OC(C)C)cn2)ns1: 109 µM
- COc1ccc(Nc2nc(-c3ccccn3)ns2)nc1: 62.7 µM
- Cc1cccnc1Nc1nnc(-c2ccc(OC3CCOCC3)cn2)s1: 0.4 µM
- CNc1cccnc1Nc1nc(-c2ccc(OC(C)C)cn2)ns1: 1.9 µM
- CNC(=O)c1cccnc1Nc1nc(-c2ccc(OC(C)C)cn2)ns1: 10.2 µM
- Cc1cccnc1Nc1nc(-c2ccc(OC(C)C)cn2)ns1: 3.2 µM
- Cc1cccnc1N(c1nc(-c2ccc(OC(C)C)cn2)ns1)C(C)C: 118 µM
- CC(C)Oc1cnc(-c2nsc(Nc3ncccc3N3CCCC3=O)n2)cc1C(F)(F)F: 9.95 µM
- CN(C)c1cccnc1Nc1nc(-c2ccc(OC3CC3)cn2)ns1: 8.92 µM
- CC(=O)N(C)c1cc(C(F)(F)F)cnc1Nc1nc(-c2ccccn2)ns1: 4.05 µM
- Cc1cccnc1Nc1nc(-c2cc(C#N)ccn2)ns1: 2.55 µM
- Cc1cccnc1Nc1nc(-c2ccc(OC3CCN(C4CC4)CC3)cn2)ns1: 3.05 µM
- CC(C)Oc1ccc(-c2nsc(Nc3ncccc3N(C)C(=O)C3CC3)n2)nc1: 2.71 µM
- Cc1cccnc1Nc1nc(-c2ccc(OC3CC3)cn2)ns1: 1.84 µM
- CC(C)Oc1ccc(-c2nsc(Nc3ncccc3N(C)C)n2)nc1: 22.5 µM
